meta.source: PubChem BioAssay AID743145

Experiment: COV434 cell viability loss – plate reader, dry powder, SA7, cytotoxicity control for PAX8 inhibitor project, dose response (AID 743145)
Details: series mostly up to 35 µM
Potency and affinity values are given separately. Activity calls are given as the source filed them. No rule for the calls is given here.
ENDPOINT: outcome

LINE_NOTATION | ASSAY_VALUE
Cc1ccccc1OCC(=O)Nc1cccc(C(=O)O)c1 | inactive
N#C[C@H]1[C@@H](c2ccc(C#CC3CCCCC3)cc2)[C@@H](CO)N1S(=O)(=O)c1ccccc1 | inactive
COc1cccc(C#Cc2ccc([C@@H]3[C@@H](C#N)N(C(=O)C4CCCCC4)[C@H]3CO)cc2)c1 | inactive
